System: Streptococcus pneumoniae
PROTOCOL: Antibacterial activity against Mef(A) efflux pump containing Streptococcus pneumoniae OC4438
Type: functional
EXPERIMENTAL READOUT: MIC (µg/mL)
Numbers only, in µg/mL.

SMILES STRUCTURE | MIC (µg/mL)
CC[C@H]1OC(=O)[C@H](C)[C@@H](OC(=O)Cc2ccccn2)[C@H](C)[C@@H](O[C@@H]2O[C@H](C)C[C@H](N(C)C)[C@H]2O)[C@](C)(OC(=O)NC/C=C/c2ccc(-c3ncccn3)cc2)C[C@@H](C)C(=O)[C@H](C)[C@H]2NC(=O)O[C@@]21C | 0.12
CC[C@H]1OC(=O)[C@H](C)[C@@H](OC(C)=O)[C@H](C)[C@@H](O[C@@H]2O[C@H](C)C[C@H](N(C)C)[C@H]2O)[C@](C)(OC(=O)NC/C=C/c2ccc(-c3ncccn3)cc2)C[C@@H](C)C(=O)[C@H](C)[C@H]2NC(=O)O[C@@]21C | 0.12
CC[C@H]1OC(=O)[C@H](C)[C@@H](OC(=O)N(C)C)[C@H](C)[C@@H](O[C@@H]2O[C@H](C)C[C@H](N(C)C)[C@H]2O)[C@](C)(OC(=O)NC/C=C/c2ccc(-c3ncccn3)cc2)C[C@@H](C)C(=O)[C@H](C)[C@H]2NC(=O)O[C@@]21C | 0.06
CC[C@H]1OC(=O)[C@H](C)[C@@H](OC(=O)c2cccnc2)[C@H](C)[C@@H](O[C@@H]2O[C@H](C)C[C@H](N(C)C)[C@H]2O)[C@](C)(OC(=O)NC/C=C/c2ccc(-c3ncccn3)cc2)C[C@@H](C)C(=O)[C@H](C)[C@H]2NC(=O)O[C@@]21C | 0.25
CC[C@H]1OC(=O)[C@H](C)[C@@H](OC(=O)N(CC)CC)[C@H](C)[C@@H](O[C@@H]2O[C@H](C)C[C@H](N(C)C)[C@H]2O)[C@](C)(OC(=O)NC/C=C/c2ccc(-c3cccnn3)cc2)C[C@@H](C)C(=O)[C@H](C)[C@H]2NC(=O)O[C@@]21C | 0.12

Please report MIC for every entry that follows.
1. CC[C@H]1OC(=O)[C@H](C)[C@@H](OC(=O)C(C)C)[C@H](C)[C@@H](O[C@@H]2O[C@H](C)C[C@H](N(C)C)[C@H]2O)[C@](C)(OC(=O)NC/C=C/c2ccc(-c3cccnn3)cc2)C[C@@H](C)C(=O)[C@H](C)[C@H]2NC(=O)O[C@@]21C
2. CC[C@H]1OC(=O)[C@H](C)[C@@H](OC(=O)N(CC)CC)[C@H](C)[C@@H](O[C@@H]2O[C@H](C)C[C@H](N(C)C)[C@H]2O)[C@](C)(OC(=O)NC/C=C/c2ccc(-c3ncccn3)cc2)C[C@@H](C)C(=O)[C@H](C)[C@H]2NC(=O)O[C@@]21C
3. CC[C@H]1OC(=O)[C@H](C)[C@@H](OC(=O)N2CCCC2)[C@H](C)[C@@H](O[C@@H]2O[C@H](C)C[C@H](N(C)C)[C@H]2O)[C@](C)(OC(=O)NC/C=C/c2ccc(-c3ncccn3)cc2)C[C@@H](C)C(=O)[C@H](C)[C@H]2NC(=O)O[C@@]21C

0.06
0.06
0.12

---

Tested on: Streptococcus pneumoniae
PROTOCOL: Antibacterial activity against Mef(A) efflux pump containing Streptococcus pneumoniae OC4438
Type: functional
EXPERIMENTAL READOUT: MIC

SMILES STRUCTURE | ASSAY RESULT
CC[C@H]1OC(=O)[C@H](C)[C@@H](OC(=O)Cc2ccncc2)[C@H](C)[C@@H](O[C@@H]2O[C@H](C)C[C@H](N(C)C)[C@H]2O)[C@](C)(OC(=O)NC/C=C/c2ccc(-c3ncccn3)cc2)C[C@@H](C)C(=O)[C@H](C)[C@H]2NC(=O)O[C@@]21C | 0.12 µg/mL

Would you be so kind as to report MIC for each listed record?
1. CC[C@H]1OC(=O)[C@H](C)[C@@H](OC(=O)C(C)C)[C@H](C)[C@@H](O[C@@H]2O[C@H](C)C[C@H](N(C)C)[C@H]2O)[C@](C)(OC(=O)NC/C=C/c2cnc3ccccc3c2)C[C@@H](C)C(=O)[C@H](C)[C@H]2NC(=O)O[C@@]21C
2. CC[C@H]1OC(=O)[C@H](C)[C@@H](OC(=O)CCc2cccnc2)[C@H](C)[C@@H](O[C@@H]2O[C@H](C)C[C@H](N(C)C)[C@H]2O)[C@](C)(OC(=O)NC/C=C/c2ccc(-c3ncccn3)cc2)C[C@@H](C)C(=O)[C@H](C)[C@H]2NC(=O)O[C@@]21C

1: 0.03 µg/mL; 2: 0.06 µg/mL

---

Could you please report measured MIC for the items listed next?
System: Streptococcus pneumoniae
PROTOCOL: Antibacterial activity against Streptococcus pneumoniae OC9132
Format: functional

SMILES STRUCTURE | EXPERIMENTAL READOUT | ASSAY RESULT
CC[C@H]1OC(=O)[C@H](C)[C@@H](OC(=O)C(C)C)[C@H](C)[C@@H](O[C@@H]2O[C@H](C)C[C@H](N(C)C)[C@H]2O)[C@](C)(OC(=O)NC/C=C/C=C/c2cccnc2)C[C@@H](C)C(=O)[C@H](C)[C@H]2NC(=O)O[C@@]21C | MIC | 0.06 µg/mL
CC[C@H]1OC(=O)[C@H](C)[C@@H](OC(=O)CC2CC2)[C@H](C)[C@@H](O[C@@H]2O[C@H](C)C[C@H](N(C)C)[C@H]2O)[C@](C)(OC(=O)NC/C=C/c2ccc(-c3ncccn3)cc2)C[C@@H](C)C(=O)[C@H](C)[C@H]2NC(=O)O[C@@]21C | MIC | 0.06 µg/mL
CC[C@H]1OC(=O)[C@H](C)[C@@H](OC(=O)c2cccnc2)[C@H](C)[C@@H](O[C@@H]2O[C@H](C)C[C@H](N(C)C)[C@H]2O)[C@](C)(OC(=O)NC/C=C/c2ccc(-c3ncccn3)cc2)C[C@@H](C)C(=O)[C@H](C)[C@H]2NC(=O)O[C@@]21C | MIC | 0.06 µg/mL

Okay, next one:
Give reported MIC value for CCC(=O)O[C@H]1[C@H](C)[C@@H](O[C@@H]2O[C@H](C)C[C@H](N(C)C)[C@H]2O)[C@](C)(OC(=O)NC/C=C/c2ccc(-c3ncccn3)cc2)C[C@@H](C)C(=O)[C@H](C)[C@H]2NC(=O)O[C@]2(C)[C@@H](CC)OC(=O)[C@@H]1C
0.03 µg/mL

---

Test system: Streptococcus pneumoniae
PROTOCOL: Antibacterial activity against Streptococcus pneumoniae OC9132
Type: functional
EXPERIMENTAL READOUT: MIC
Reply with a number, then the unit it belongs to.

SMILES STRUCTURE | ASSAY RESULT
CC[C@H]1OC(=O)[C@H](C)[C@@H](OC(=O)Cc2cccnc2)[C@H](C)[C@@H](O[C@@H]2O[C@H](C)C[C@H](N(C)C)[C@H]2O)[C@](C)(OC(=O)NC/C=C/c2cnc3ccccc3c2)C[C@@H](C)C(=O)[C@H](C)[C@H]2NC(=O)O[C@@]21C | 0.06 µg/mL

Hi! Can you tell me MIC for each of these compounds?
1. CC[C@H]1OC(=O)[C@H](C)[C@@H](OC(=O)Cc2cccnc2)[C@H](C)[C@@H](O[C@@H]2O[C@H](C)C[C@H](N(C)C)[C@H]2O)[C@](C)(OC(=O)NC/C=C/c2cnc(C3CC3)nc2)C[C@@H](C)C(=O)[C@H](C)[C@H]2NC(=O)O[C@@]21C
2. CC[C@H]1OC(=O)[C@H](C)[C@@H](OC(=O)Nc2ccc(F)cc2)[C@H](C)[C@@H](O[C@@H]2O[C@H](C)C[C@H](N(C)C)[C@H]2O)[C@](C)(OC(=O)NC/C=C/c2ccc(-c3ncccn3)cc2)C[C@@H](C)C(=O)[C@H](C)[C@H]2NC(=O)O[C@@]21C
3. CC[C@H]1OC(=O)[C@H](C)[C@@H](OC(=O)N(CC)CC)[C@H](C)[C@@H](O[C@@H]2O[C@H](C)C[C@H](N(C)C)[C@H]2O)[C@](C)(OC(=O)NC/C=C/c2ccc(-c3cccnn3)cc2)C[C@@H](C)C(=O)[C@H](C)[C@H]2NC(=O)O[C@@]21C
4. CC[C@H]1OC(=O)[C@H](C)[C@@H](OC(=O)N(CC)CC)[C@H](C)[C@@H](O[C@@H]2O[C@H](C)C[C@H](N(C)C)[C@H]2O)[C@](C)(OC(=O)NC/C=C/c2ccc(-c3ncccn3)cc2)C[C@@H](C)C(=O)[C@H](C)[C@H]2NC(=O)O[C@@]21C
5. CC[C@H]1OC(=O)[C@H](C)[C@@H](OC(=O)N2CCCC2)[C@H](C)[C@@H](O[C@@H]2O[C@H](C)C[C@H](N(C)C)[C@H]2O)[C@](C)(OC(=O)NC/C=C/c2ccc(-c3ncccn3)cc2)C[C@@H](C)C(=O)[C@H](C)[C@H]2NC(=O)O[C@@]21C
6. CC[C@H]1OC(=O)[C@H](C)C(=O)[C@H](C)[C@@H](O[C@@H]2O[C@H](C)C[C@H](N(C)C)[C@H]2O)[C@](C)(OC)C[C@@H](C)C(=O)[C@H](C)[C@H]2N(CCCCn3cnc(-c4cccnc4)c3)C(=O)O[C@]12C
7. CC[C@H]1OC(=O)[C@H](C)[C@@H](OC(=O)N(C)Cc2cccnc2)[C@H](C)[C@@H](O[C@@H]2O[C@H](C)C[C@H](N(C)C)[C@H]2O)[C@](C)(OC(=O)NC/C=C/c2ccc(-c3ncccn3)cc2)C[C@@H](C)C(=O)[C@H](C)[C@H]2NC(=O)O[C@@]21C

1. 0.06 µg/mL
2. 0.12 µg/mL
3. 0.06 µg/mL
4. 0.06 µg/mL
5. 0.06 µg/mL
6. 0.03 µg/mL
7. 0.03 µg/mL

Dear colleague, could you send me MIC for each of the items below? Thanks.
1. CC[C@H]1OC(=O)[C@H](C)C(=O)[C@H](C)[C@@H](O[C@@H]2O[C@H](C)C[C@H](N(C)C)[C@H]2O)[C@](C)(OC(=O)NC/C=C/c2ccc(-c3ncccn3)cc2)C[C@@H](C)C(=O)[C@H](C)[C@H]2NC(=O)O[C@@]21C
2. CC[C@H]1OC(=O)[C@H](C)[C@@H](OC(=O)Nc2ccc(OC)cc2)[C@H](C)[C@@H](O[C@@H]2O[C@H](C)C[C@H](N(C)C)[C@H]2O)[C@](C)(OC(=O)NC/C=C/c2ccc(-c3ncccn3)cc2)C[C@@H](C)C(=O)[C@H](C)[C@H]2NC(=O)O[C@@]21C
3. CC[C@H]1OC(=O)[C@H](C)[C@@H](OC(=O)C(C)C)[C@H](C)[C@@H](O[C@@H]2O[C@H](C)C[C@H](N(C)C)[C@H]2O)[C@](C)(OC(=O)NC/C=C/c2ccc(-c3ncccn3)cc2)C[C@@H](C)C(=O)[C@H](C)[C@H]2NC(=O)O[C@@]21C
4. CC[C@H]1OC(=O)[C@H](C)[C@@H](OC(=O)CCc2cccnc2)[C@H](C)[C@@H](O[C@@H]2O[C@H](C)C[C@H](N(C)C)[C@H]2O)[C@](C)(OC(=O)NC/C=C/c2ccc(-c3ncccn3)cc2)C[C@@H](C)C(=O)[C@H](C)[C@H]2NC(=O)O[C@@]21C
5. CC[C@H]1OC(=O)[C@H](C)[C@@H](OC(=O)N(C)c2ccncc2)[C@H](C)[C@@H](O[C@@H]2O[C@H](C)C[C@H](N(C)C)[C@H]2O)[C@](C)(OC(=O)NC/C=C/c2ccc(-c3ncccn3)cc2)C[C@@H](C)C(=O)[C@H](C)[C@H]2NC(=O)O[C@@]21C
6. CC[C@H]1OC(=O)[C@H](C)[C@@H](OC(=O)Cc2ccncc2)[C@H](C)[C@@H](O[C@@H]2O[C@H](C)C[C@H](N(C)C)[C@H]2O)[C@](C)(OC(=O)NC/C=C/c2ccc(-c3ncccn3)cc2)C[C@@H](C)C(=O)[C@H](C)[C@H]2NC(=O)O[C@@]21C

1: 0.03 µg/mL; 2: 0.12 µg/mL; 3: 0.06 µg/mL; 4: 0.03 µg/mL; 5: 0.06 µg/mL; 6: 0.03 µg/mL
